src = patent US5077309A

Tested system: guinea pig trachea (Cavia porcellus)
Construct: from tissue; host or cells: guinea pig trachea, spiral strips
Sequence (A0A286Y4I8 1-347): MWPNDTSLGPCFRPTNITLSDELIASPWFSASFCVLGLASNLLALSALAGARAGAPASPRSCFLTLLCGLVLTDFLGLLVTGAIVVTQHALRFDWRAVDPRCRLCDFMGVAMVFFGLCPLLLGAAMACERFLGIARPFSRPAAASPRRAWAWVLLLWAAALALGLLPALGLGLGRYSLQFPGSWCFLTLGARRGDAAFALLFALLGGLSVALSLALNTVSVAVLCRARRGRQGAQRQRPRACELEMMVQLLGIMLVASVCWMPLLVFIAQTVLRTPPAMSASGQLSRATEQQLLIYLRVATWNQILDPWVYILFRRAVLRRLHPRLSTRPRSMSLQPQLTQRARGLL
Measurement protocol: Guinea pig trachea system: antagonism of 11,9-(epoxymethano) PGH2 tension response in trachea strips (Gaddum-Schild KB)
Type: cell-based
Assay context: agonist 11,9-(epoxymethano) PGH2; compound added 50 minutes before agonist; head KB × 10^-6
Parameter: Kb (nM)
Reply numerically in nM, unit not repeated.

Take a look at these entries with their results.
Problem: Query (compound): CCCCCCNC(=S)NN=C(C)[C@@H]1C2CCC(CC2)[C@H]1CCCCOCC(=O)O (relative stereo) ; field requested: Kb
Solution: 14.3

Problem: Entry O=C(O)COCCOC[C@@H]1[C@@H]2CC[C@@H](C2)[C@H]1C=NOC(c1ccccc1)c1ccccc1 (relative stereo) has what Kb?
Solution: 17.9

Here's the next entry for you.
Problem: What value of measured Kb is listed for CC(=NNC(=S)Nc1ccccc1)[C@@H]1C2CCC(CC2)[C@H]1CCCCCOCC(=O)O (relative stereo) ?
Solution: 3.7
